- target under test: rat MCH-1 (Rattus norvegicus, UniProt P97639)
- Sequence (P97639 whole entry): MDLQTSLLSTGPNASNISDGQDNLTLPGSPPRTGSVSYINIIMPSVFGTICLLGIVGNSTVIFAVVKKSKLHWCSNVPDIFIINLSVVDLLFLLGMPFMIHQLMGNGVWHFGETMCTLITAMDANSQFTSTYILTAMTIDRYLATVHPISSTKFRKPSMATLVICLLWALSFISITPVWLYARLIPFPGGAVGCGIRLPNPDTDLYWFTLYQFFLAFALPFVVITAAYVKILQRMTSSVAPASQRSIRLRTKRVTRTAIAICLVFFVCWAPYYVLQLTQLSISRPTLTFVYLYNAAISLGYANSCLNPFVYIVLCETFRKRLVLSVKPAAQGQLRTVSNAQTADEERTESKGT
- protocol notes: Radioligand binding assay at cloned rat MCH1 receptor ([3H] Compound A)
- Parameters: host or cells: Peak rapid 293 (Peakr293) cells, transient calcium phosphate transfection, membranes
- experimental conditions: cloned rat MCH1 receptor; 0.08 nM [3H] Compound A; Peakr293 cell membranes; read-out: Ki (nM) rMCH1
Each item that follows carries a reported log10(Ki).
assay endpoint: log10(Ki) (log10 of the value in nM)

{"columns": ["compound", "target under test", "log10(Ki)"],
 "data": [
  ["CC(C)C(=O)Nc1cccc(C2CCN(Cc3c[nH]c4cc([N+](=O)[O-])ccc34)CC2)c1 [Example 507]", "rat MCH-1 (Rattus norvegicus, UniProt P97639)", 1.76],
  ["Cc1ccc2[nH]c(-c3ccccc3Br)c(CCCN3CCC(c4cccc(NC(=O)C(C)C)c4)CC3)c2c1 [Example 785]", "rat MCH-1 (Rattus norvegicus, UniProt P97639)", 1.36],
  ["Cc1ccc(C(=O)CCCN2CCC(c3cccc(NC(=O)C4CC4)c3)CC2)cc1C [Example 546]", "rat MCH-1 (Rattus norvegicus, UniProt P97639)", 1.94],
  ["CC(C)C(=O)Nc1cccc(C2CCN(CCCC(=O)c3ccc(Br)cc3)CC2)c1 [Example 947]", "rat MCH-1 (Rattus norvegicus, UniProt P97639)", 0.63],
  ["CC(C)C(=O)Nc1cccc(C2CCN(C(C)CCC(=O)c3ccccc3)CC2)c1 (centres unmarked) [Example 570]", "rat MCH-1 (Rattus norvegicus, UniProt P97639)", 2.13],
  ["COc1cccc2c(CCCN3CCC(c4cccc(NC(=O)C(C)C)c4)CC3)c[nH]c12 [Example 418]", "rat MCH-1 (Rattus norvegicus, UniProt P97639)", 1.71],
  ["CC(C)C(=O)Nc1cccc(C2CCN(CCCCCNC(=O)C(c3ccccc3)c3ccccc3)CC2)c1 [Example 654]", "rat MCH-1 (Rattus norvegicus, UniProt P97639)", 1.64],
  ["CC(C)C(=O)Nc1cccc(C2CCN(Cc3ccc4c(ccn4-c4ccc(Cl)cc4)c3)CC2)c1 [Example 838]", "rat MCH-1 (Rattus norvegicus, UniProt P97639)", 1.05],
  ["CCC(=O)Nc1cccc(C2CCN(CCCC(=O)c3ccc(Br)cc3)CC2)c1 [Example 533]", "rat MCH-1 (Rattus norvegicus, UniProt P97639)", 1.03],
  ["CC(C)C(=O)Nc1cccc(C2CCN(CCCCC(=O)c3cccc(F)c3)CC2)c1 [Example 669]", "rat MCH-1 (Rattus norvegicus, UniProt P97639)", 1.63],
  ["CC(C)C(=O)Nc1cccc(C2CCN(Cc3cn(-c4ccc(F)cc4)c4cc(Cl)ccc34)CC2)c1 [Example 471]", "rat MCH-1 (Rattus norvegicus, UniProt P97639)", 0.63],
  ["CC(C)C(=O)Nc1cccc(C2CCN(CCCCCC(Oc3cc(C(F)(F)F)ccc3F)c3cccc(F)c3)CC2)c1 (centres unmarked) [Example 915]", "rat MCH-1 (Rattus norvegicus, UniProt P97639)", 1.35],
  ["CCc1ccc(-c2cccc3c(CN4CCC(c5cccc(NC(=O)C(C)C)c5)CC4)c[nH]c23)cc1 [Example 518]", "rat MCH-1 (Rattus norvegicus, UniProt P97639)", 2.35],
  ["CC(C)C(=O)Nc1cccc(C2CCN(CCCCC(Oc3cc(C(F)(F)F)ccc3F)c3cccc(Cl)c3)CC2)c1 (centres unmarked) [Example 930]", "rat MCH-1 (Rattus norvegicus, UniProt P97639)", 1.16],
  ["CC(C)C(=O)Nc1cccc(C2CCN(Cc3cccc4c3ccn4-c3cccc(F)c3)CC2)c1 [Example 875]", "rat MCH-1 (Rattus norvegicus, UniProt P97639)", 2.11],
  ["O=C(Nc1cccc(C2CCN(Cc3c[nH]c4cc(F)ccc34)CC2)c1)C1CC1 [Example 469]", "rat MCH-1 (Rattus norvegicus, UniProt P97639)", 2.68],
  ["CCCC(=O)Nc1ccc(C2CCN(CCCCCn3ccc4ccccc43)CC2)cc1 [Example 826]", "rat MCH-1 (Rattus norvegicus, UniProt P97639)", 2.90],
  ["CC(C)C(=O)Nc1cccc(C2CCN(Cc3cn(-c4ccccn4)c4ccccc34)CC2)c1 [Example 501]", "rat MCH-1 (Rattus norvegicus, UniProt P97639)", 1.34],
  ["CC(C)C(=O)Nc1cccc(C2CCN(CCCc3c[nH]c4c3ccc3ccccc34)CC2)c1 [Example 413]", "rat MCH-1 (Rattus norvegicus, UniProt P97639)", 1.89],
  ["CC(C)C(=O)Nc1cccc(C2CCN(CCCCC(=O)c3ccccc3I)CC2)c1 [Example 668]", "rat MCH-1 (Rattus norvegicus, UniProt P97639)", 1.41],
  ["CC(C)C(=O)Nc1cccc(C2CCN(Cc3cn(-c4ccccc4C(F)(F)F)c4ccccc34)CC2)c1 [Example 448]", "rat MCH-1 (Rattus norvegicus, UniProt P97639)", 1.79],
  ["CC(C)C(=O)Nc1cccc(C2CCN(CCCc3c(-c4ccccc4Cl)n(C)c4ccccc34)CC2)c1 [Example 735]", "rat MCH-1 (Rattus norvegicus, UniProt P97639)", 0.04],
  ["CC(C)C(=O)Nc1cccc(C2CCN(CCCCC(=O)c3cccc(Cl)c3)CC2)c1 [Example 666]", "rat MCH-1 (Rattus norvegicus, UniProt P97639)", 1.34],
  ["CC(C)C(=O)Nc1cccc(C2CCN(CCCc3c(-c4ccccc4F)n(C)c4ccccc34)CC2)c1 [Example 709]", "rat MCH-1 (Rattus norvegicus, UniProt P97639)", 0.11],
  ["CC(C)C(=O)Nc1cccc(C2CCN(CCCC(=O)c3cccs3)CC2)c1 [Example 948]", "rat MCH-1 (Rattus norvegicus, UniProt P97639)", 1.33],
  ["CCC(=O)Nc1cccc(C2CCN(CCCCC(=O)c3ccc(Cl)cc3)CC2)c1 [Example 561]", "rat MCH-1 (Rattus norvegicus, UniProt P97639)", 1.97],
  ["CC(C)C(=O)Nc1cccc(C2CCN(Cc3cccc4c3ccn4-c3cccnc3)CC2)c1 [Example 873]", "rat MCH-1 (Rattus norvegicus, UniProt P97639)", 2.54],
  ["CCC(=O)Nc1cccc(C2CCN(Cc3cn(-c4cccc(Cl)c4)c4cc(Cl)ccc34)CC2)c1 [Example 478]", "rat MCH-1 (Rattus norvegicus, UniProt P97639)", 1.07],
  ["CC(C)C(=O)Nc1cccc(C2CCN(Cc3cccc4c3ccn4-c3cc(Cl)cc(Cl)c3)CC2)c1 [Example 863]", "rat MCH-1 (Rattus norvegicus, UniProt P97639)", 2.43],
  ["CC(=O)c1cccc(OC(CCCCN2CCC(c3cccc(NC(=O)C(C)C)c3)CC2)c2ccccc2)c1 (centres unmarked) [Example 927]", "rat MCH-1 (Rattus norvegicus, UniProt P97639)", 1.78],
  ["O=C(CCCCN1CCC(c2cccc(NC(=O)C3CC3)c2)CC1)c1cccc(F)c1 [Example 549]", "rat MCH-1 (Rattus norvegicus, UniProt P97639)", 1.60],
  ["CC(C)C(=O)Nc1cccc(C2CCN(CCCc3c(-c4ccccc4I)[nH]c4ccccc34)CC2)c1 [Example 790]", "rat MCH-1 (Rattus norvegicus, UniProt P97639)", 0.64]
]}
